Where do these numbers come from? They come from patent US12195427B2.

MEASURED_TARGET: MASP-2 CCP2-SP (Homo sapiens (Human))
Sequence (O00187 445-686): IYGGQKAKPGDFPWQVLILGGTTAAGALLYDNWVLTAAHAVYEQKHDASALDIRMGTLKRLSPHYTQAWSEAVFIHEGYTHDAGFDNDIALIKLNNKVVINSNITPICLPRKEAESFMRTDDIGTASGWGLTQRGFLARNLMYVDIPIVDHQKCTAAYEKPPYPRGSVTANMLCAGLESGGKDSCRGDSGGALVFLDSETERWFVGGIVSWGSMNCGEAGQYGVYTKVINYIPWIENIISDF
Sequence (O00187 364-432 partner): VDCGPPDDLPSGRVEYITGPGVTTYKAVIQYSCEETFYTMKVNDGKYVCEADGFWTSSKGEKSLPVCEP
ASSAY_COMMENT: MASP-2 co-crystallization, X-ray crystallography and structure analysis (H-bonds, van der Waals contacts)
TEST_CONTEXT: Table A1 (H-Bonds); SER 654 O
Counter-ions that a name gives are not always drawn.

| MOLECULE | H-bond distance to MASP-2 SER 654 atom O |
| --- | --- |
| Cc1nc(N)ccc1CNC(=O)[C@H](C)NC(=O)[C@H]1C[C@H](Cc2cc(Cl)cc(Cl)c2)CN1 [compound 1435, Dihydrochloride] | 3.01 |
| Cc1nc(N)ccc1CNC(=O)[C@H](C)NC(=O)[C@H]1C[C@H](Cc2ccccc2Br)CN1 [compound 1372, Di-trifluoroacetate salt] | 2.97 |
| C[C@H](NC(=O)[C@H]1C[C@H](Cc2ccccc2)CN1)C(=O)NCc1cc(Cl)ccc1-n1cnnn1 [compound 1371, Hydrochloride] | 2.86 |
| C[C@H](NC(=O)[C@H]1C[C@@H](c2ccccc2)CCN1)C(=O)NCc1ccc(C(=N)N)cc1 (stereo in doubt) | 2.92 |
| Cc1nc(N)ccc1CNC(=O)[C@H](C)NC(=O)[C@H]1C[C@@H](Cc2ccccc2)CCN1 | 3 |
| C[C@H](NC(=O)[C@H](N)CCc1cccc(Cl)c1)C(=O)NCc1ccc(C(=N)N)cc1 | 2.81 |
